src = patent US8691993B2

- SYSTEM_NAME: human CRTH2 receptor (Homo sapiens (Human), UniProt Q9Y5Y4)
- Sequence (Q9Y5Y4 whole entry): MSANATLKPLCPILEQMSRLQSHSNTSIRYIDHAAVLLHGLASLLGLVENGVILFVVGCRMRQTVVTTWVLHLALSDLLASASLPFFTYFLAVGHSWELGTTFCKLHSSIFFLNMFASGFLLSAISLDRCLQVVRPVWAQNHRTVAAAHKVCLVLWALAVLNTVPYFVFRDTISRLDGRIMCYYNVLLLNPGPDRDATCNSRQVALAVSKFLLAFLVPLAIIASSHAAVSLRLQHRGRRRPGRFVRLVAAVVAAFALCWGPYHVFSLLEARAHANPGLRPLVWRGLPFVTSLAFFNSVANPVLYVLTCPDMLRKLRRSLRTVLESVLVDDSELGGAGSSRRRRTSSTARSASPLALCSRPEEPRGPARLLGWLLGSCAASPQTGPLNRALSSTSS
- ASSAY_DETAILS: Calcium Flux Assay Using Fluorometric Imaging Plate Reader (FLIPR)
- STATED_CONDITIONS: CHO-K1 cells transfected with G-alpha 16 and human CRTH2 receptor; DK-PGD2 ligand; 1 hour compound incubation
ASSAY_METRIC: IC50 (nM)

- O=C(O)Cc1cc(C2CCN(S(=O)(=O)c3cccc(Cl)c3)CC2)c2cc(F)ccc2c1: 95
- O=C(O)Cc1cc(C2CCN(S(=O)(=O)c3ccccc3Cl)CC2)c2cc(F)ccc2c1: 2.5

P. CS(=O)(=O)c1cccc(S(=O)(=O)N2CCC(c3cc(CC(=O)O)cc4ccc(F)cc34)CC2)c1
Q. O=C(O)Cc1cc(C2CCN(S(=O)(=O)c3ccccn3)CC2)c2cc(F)ccc2c1
Returns: the argument ( P or Q ) having the larger IC50. Label of pick, please.
P
(P: 1150 nM, Q: 104 nM)

----------
- SYSTEM_NAME: human CRTH2 receptor (Homo sapiens (Human))
- ASSAY_DETAILS: Calcium Flux Assay Using Fluorometric Imaging Plate Reader (FLIPR)
- STATED_CONDITIONS: CHO-K1 cells transfected with G-alpha 16 and human CRTH2 receptor; DK-PGD2 ligand; 1 hour compound incubation
pIC50: −log10 of the molar value.
ASSAY_METRIC: pIC50

- O=C(O)Cc1cc(C2CCN(S(=O)(=O)c3cc(C(F)(F)F)cc(C(F)(F)F)c3)CC2)c2cc(F)ccc2c1: 5.87

1. O=C(O)Cc1cc(C2CCN(S(=O)(=O)c3ccncc3)CC2)c2cc(F)ccc2c1
2. O=C(O)Cc1cc(C2CCN(S(=O)(=O)c3cccnc3)CC2)c2cc(F)ccc2c1
3. O=C(O)Cc1cc(C2CCN(S(=O)(=O)c3cc(Cl)cc(Cl)c3)CC2)c2cc(F)ccc2c1
4. Cc1ccc(S(=O)(=O)N2CCC(c3cc(CC(=O)O)cc4ccc(F)cc34)CC2)cc1
List items by pIC50 in falling order. Answer by listing the labels in the order asked for.
4, 3, 1, 2
